Data provenance is PubChem BioAssay (NCI).

Known GI50 of a selection of compounds
- Tested on: PC-3 prostate
- Measurement Notes: NCI tumour cell line growth inhibition, 48 h

{"Compound": "S=C(N/N=C(/c1ccccc1)c1ccccn1)N1CCCCCC1", "GI50": "< 0.001 µM"}

Ask | What does the record list as GI50 for COc1ccc(-c2cc(-c3ccc(O)cc3)nc3n[nH]c(N)c23)cc1 ?
Reply | 29.1 µM

====

- Tested on: SK-OV-3 ovarian
- Measurement Notes: NCI tumour cell line growth inhibition, 48 h
Parameter: GI50

Below are worked cases with known answers.
{"Compound": "C[C@H](CCCNCCCNCCCN)[C@H]1CC[C@H]2[C@@H]3[C@H](OCCCN)C[C@H]4C[C@H](OCCCN)CC[C@]4(C)[C@H]3C[C@H](OCCCN)[C@]12C", "GI50": "35.7 µM"}
{"Compound": "OCC1OC(n2cnc3c(Cl)nc(Cl)cc32)C(O)C1O (stereo not given)", "GI50": "> 100 µM"}

Ask | # get_value(readout='GI50', item= CC(=O)[C@@]1(O)[C@H](C)C[C@H]2[C@@H]3C=C(C)C4=Cc5c(cnn5-c5ccccc5)C[C@]4(C)[C@H]3[C@@H](O)C[C@@]21C )
Reply | 0.76 µM

Ask | O=C(CCC(C(=O)c1ccccc1)c1ccccc1)c1ccccc1 (stereo not given) ?
Reply | 78.8 µM

Ask | Follow-up item: O=C(NCc1ccncc1)C12CC3CC(C1)CC(c1ccc(Cl)cc1)(C3)C2
Reply | 12.5 µM

====

- Test system: DU-145 prostate
- Measurement Notes: NCI tumour cell line growth inhibition, 48 h; in the data active = GI50 below about 0.43 µM; inactive = the rest
Form entry, call: pick from true (1) for active, false (0) for inactive

Reference set (5 entries):
{"Compound": "C=CN(C)S(C)(=O)=O", "Classification": "false (0)"}
{"Compound": "CCc1ccc2c(c1)N(CCO)C1=C(C(=O)OC1)C2c1cccc(Cl)c1 (centres undefined)", "Classification": "false (0)"}
{"Compound": "COc1cc(OC)c(NC(=O)c2cc3ccccc3cc2O)cc1Cl", "Classification": "false (0)"}
{"Compound": "Cc1ccc(-c2nc(N3CCCNCC3)c3oc(-c4ccccc4)nc3n2)cc1", "Classification": "false (0)"}
{"Compound": "CC(=O)[C@@]1(O)[C@H](C)C[C@H]2[C@@H]3C=C(C)C4=Cc5c(cnn5-c5ccccc5)C[C@]4(C)[C@H]3[C@@H](O)C[C@@]21C", "Classification": "false (0)"}

Now look at this one.
Ask | // outcome(item) with item = CCOC(=O)[C@@H](C)C[C@H](Cc1ccccc1)NC(=O)c1csc([C@@H](C[C@H](C(C)C)N(C)C(=O)[C@H](CC)NC(=O)[C@H]2CCCCN2C)OC(C)=O)n1
Reply | true (1)

====

- System: MDA-MB-435
Select the matching outcome among T (active), F (inactive)

The examples below pair each entry with its known result.
{"Molecule": "NC1=NCCN1CC(=O)O", "Classification": "F"}
{"Molecule": "COc1ccc(-c2c(-c3cc(OC)c(OC)c(OC)c3)noc2N)cc1", "Classification": "T"}
{"Molecule": "O=C(CCC(C(=O)c1ccccc1)c1ccccc1)c1ccccc1 (stereo not given)", "Classification": "F"}

Ask | Could you kindly confirm the outcome this assay logged for O=C(NCc1ccco1)c1ccc(NC2=C(Cl)C(=O)N(Cc3ccccc3)C2=O)cc1 ?
Reply | F

Ask | Next entry: O=c1c2c3c(sc2nc(N/N=C/c2ccc(Br)cc2)n1Cc1ccccc1)CCCC3
Reply | F
